Reference source for all entries: the kinase profiling compilation of Christmann-Franck et al. (2016)

# testedTarget: EPHA8 (human) (UniProt P29322)
# Sequence (P29322 whole entry, looked up): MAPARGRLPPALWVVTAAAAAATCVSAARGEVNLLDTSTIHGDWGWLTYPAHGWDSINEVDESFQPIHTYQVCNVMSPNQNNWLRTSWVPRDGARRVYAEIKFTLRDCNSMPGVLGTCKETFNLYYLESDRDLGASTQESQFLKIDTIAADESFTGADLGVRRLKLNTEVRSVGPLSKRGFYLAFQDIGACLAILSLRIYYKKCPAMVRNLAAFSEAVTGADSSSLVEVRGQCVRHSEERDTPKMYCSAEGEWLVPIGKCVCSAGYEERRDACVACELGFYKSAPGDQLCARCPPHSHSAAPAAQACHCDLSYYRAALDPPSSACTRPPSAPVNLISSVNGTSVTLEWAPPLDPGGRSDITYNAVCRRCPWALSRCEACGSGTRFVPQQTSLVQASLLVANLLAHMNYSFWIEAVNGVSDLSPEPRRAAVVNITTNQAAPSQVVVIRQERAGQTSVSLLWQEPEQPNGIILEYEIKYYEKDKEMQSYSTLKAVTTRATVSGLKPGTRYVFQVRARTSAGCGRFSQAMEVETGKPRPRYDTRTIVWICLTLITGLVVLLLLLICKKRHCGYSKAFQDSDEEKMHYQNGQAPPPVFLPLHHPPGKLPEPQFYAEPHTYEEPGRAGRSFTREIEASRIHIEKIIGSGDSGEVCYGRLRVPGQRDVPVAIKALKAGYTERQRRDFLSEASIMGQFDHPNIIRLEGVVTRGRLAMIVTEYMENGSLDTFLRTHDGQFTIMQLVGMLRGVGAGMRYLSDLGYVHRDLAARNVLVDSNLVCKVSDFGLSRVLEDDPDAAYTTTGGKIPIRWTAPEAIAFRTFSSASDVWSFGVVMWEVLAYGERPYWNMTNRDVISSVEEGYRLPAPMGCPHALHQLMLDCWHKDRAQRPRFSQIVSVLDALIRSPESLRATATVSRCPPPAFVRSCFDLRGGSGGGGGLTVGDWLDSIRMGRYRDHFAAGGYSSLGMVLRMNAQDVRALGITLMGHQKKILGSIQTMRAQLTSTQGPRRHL
# measurementProtocol: radiometric filter-binding kinase assay, Kinase HotSpot
# recordedConditions: compound 0.5 µM; ATP 10 µM
measurementType: residual activity
Entry format: amount then unit.

>  <molecule>
CC(=O)O/N=C1\C(=C2\C(=O)Nc3cc(Br)ccc32)Nc2ccccc21

>  <residual activity>
96.3%

$$$$
>  <molecule>
COc1cc2ncc(-c3ccccc3)nc2cc1OC

>  <residual activity>
93.1%

$$$$
>  <molecule>
CCN(CC)CCCCN1c2ccccc2Oc2ccc(Cl)cc21

>  <residual activity>
102%

$$$$

Task: For EPHA8 (human) (UniProt P29322), provide residual activity of `Cn1cnc2cc3c(Nc4cccc(Br)c4)ncnc3cc21` please.
Output: 85.4%

Task: Param readout = residual activity; param system = EPHA8 (human) (UniProt P29322); param query = `O=C1NC(=O)/C(=C\c2ccc3nccnc3c2)S1` ; response: value
Output: 94.2%

Task: For EPHA8 (human) (UniProt P29322), provide residual activity of `Cn1nc2c3c(cccc31)C(=O)c1ccccc1-2` please.
Output: 99.4%
